Entry source: patent US20230357429A1

target: T1, Peptide-6 (cysteine pairing not given here; also: biotinylated, site not given here); assay: ELISA, Fab on captured biotin-peptide
T1 peptide: IDFCLIYNWPVCDT
Where no end group is shown, it is not given here.
measured-parameter: EC50 (nM)

binder="TBD-1 wt (Fab, V domains shown, Fab; the heavy chain entry is VH-CH1; also called wild-type anti-TROP2 Fab (hRS7); TROP2 Fab) VH: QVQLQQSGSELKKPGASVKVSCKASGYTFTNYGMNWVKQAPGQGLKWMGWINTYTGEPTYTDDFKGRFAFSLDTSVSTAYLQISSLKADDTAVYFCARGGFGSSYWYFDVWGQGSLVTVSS VL: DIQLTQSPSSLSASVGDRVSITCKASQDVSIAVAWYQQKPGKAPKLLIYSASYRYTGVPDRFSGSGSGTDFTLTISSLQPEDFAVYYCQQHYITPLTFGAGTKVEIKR" measured_number=28.5
binder="TBD-6 (LC I93A) (Fab, V domains shown, Fab; also called LC I93A mutant) VH: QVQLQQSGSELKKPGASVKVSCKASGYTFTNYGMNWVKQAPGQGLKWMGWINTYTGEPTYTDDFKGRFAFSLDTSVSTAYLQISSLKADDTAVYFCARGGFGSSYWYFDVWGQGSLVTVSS VL: DIQLTQSPSSLSASVGDRVSITCKASQDVSIAVAWYQQKPGKAPKLLIYSASYRYTGVPDRFSGSGSGTDFTLTISSLQPEDFAVYYCQQHYATPLTFGAGTKVEIKR" measured_number=15
binder="TBD-11 (HC R98A) (Fab, V domains shown, Fab; also called HC R98A mutant) VH: QVQLQQSGSELKKPGASVKVSCKASGYTFTNYGMNWVKQAPGQGLKWMGWINTYTGEPTYTDDFKGRFAFSLDTSVSTAYLQISSLKADDTAVYFCAAGGFGSSYWYFDVWGQGSLVTVSS VL: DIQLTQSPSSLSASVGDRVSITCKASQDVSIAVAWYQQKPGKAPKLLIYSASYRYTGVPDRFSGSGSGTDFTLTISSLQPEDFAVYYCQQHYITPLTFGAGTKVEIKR" measured_number=363
